- measured on: SHP-2 full length protein (Homo sapiens (Human), UniProt Q06124)
- Sequence (Q06124 whole entry): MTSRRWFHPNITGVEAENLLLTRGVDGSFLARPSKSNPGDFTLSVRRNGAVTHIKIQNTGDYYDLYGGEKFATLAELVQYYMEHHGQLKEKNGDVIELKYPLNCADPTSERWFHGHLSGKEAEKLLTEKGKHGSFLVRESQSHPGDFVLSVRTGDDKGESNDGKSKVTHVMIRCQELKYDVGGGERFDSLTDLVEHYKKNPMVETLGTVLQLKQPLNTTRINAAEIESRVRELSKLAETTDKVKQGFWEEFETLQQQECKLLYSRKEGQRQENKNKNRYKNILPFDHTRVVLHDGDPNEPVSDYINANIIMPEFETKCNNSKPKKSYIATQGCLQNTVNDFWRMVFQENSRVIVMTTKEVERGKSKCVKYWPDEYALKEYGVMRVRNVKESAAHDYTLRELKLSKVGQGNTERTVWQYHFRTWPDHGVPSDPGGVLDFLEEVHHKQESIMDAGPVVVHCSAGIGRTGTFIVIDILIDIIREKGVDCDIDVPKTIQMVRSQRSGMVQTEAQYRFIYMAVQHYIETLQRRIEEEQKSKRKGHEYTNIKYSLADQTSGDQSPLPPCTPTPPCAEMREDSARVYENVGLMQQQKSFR
- protocol summary: SHP-2 biochemical DiFMUP pseudosubstrate-fluorogenic assay
- stated conditions: 0.2 nM SHP-2, 1 μM IRS-1 activator peptide, 50 μM DiFMUP; read-out: SHP2 IC50
Entries and their IC50

>  <chemical string>
C[C@@H]1OCC2(CCN(c3ncc(Sc4ccnc5c(C(N)=O)cccc45)c4nccn34)CC2)[C@@H]1N

>  <IC50 [nM]>
11

$$$$
>  <chemical string>
C[C@H](N)C1CCN(c2ncc(Sc3cccc(Cl)c3Cl)c3nccn23)CC1

>  <IC50 [nM]>
170

$$$$
>  <chemical string>
N#Cc1cccc2c(Sc3cnc(N4CCC5(CCC[C@H]5N)CC4)n4ccnc34)ccnc12

>  <IC50 [nM]>
18

$$$$
>  <chemical string>
N[C@@H]1CCCC12CCN(c1ncc(Sc3cccc(Cl)c3Cl)c3nccn13)CC2

>  <IC50 [nM]>
2.8

$$$$
>  <chemical string>
N[C@@H]1CCCC12CCN(c1ncc(Sc3ccnc4c3CCCC4)c3nccn13)CC2

>  <IC50 [nM]>
11

$$$$
>  <chemical string>
N[C@@H]1c2ccccc2CC12CCN(c1ncc(Sc3ccnc4ccccc34)c3nccn13)CC2

>  <IC50 [nM]>
2.8

$$$$
>  <chemical string>
N[C@@H]1CCCC12CCN(c1ncc(SC3CCCCC3)c3nccn13)CC2

>  <IC50 [nM]>
5300

$$$$
>  <chemical string>
N[C@@H]1CCCC12CCN(c1ncc(Sc3ccnc(Cl)c3Cl)c3nccn13)CC2

>  <IC50 [nM]>
3.1

$$$$

* * *

- measured on: SHP-2 full length protein (Homo sapiens (Human))
- protocol summary: SHP-2 biochemical DiFMUP pseudosubstrate-fluorogenic assay
- stated conditions: 0.2 nM SHP-2, 1 μM IRS-1 activator peptide, 50 μM DiFMUP; read-out: SHP2 IC50
Entries and their IC50

>  <compound>
N[C@@H]1CCCC12CCN(c1ncc(Sc3ccc4cn[nH]c4c3)c3nccn13)CC2

>  <comparison operator>
=

>  <IC50, nM>
180

$$$$
>  <compound>
C[C@@H]1OCC2(CCN(c3ncc(Sc4ccnc5c(N)cccc45)c4nccn34)CC2)[C@@H]1N

>  <comparison operator>
=

>  <IC50, nM>
4.2

$$$$
>  <compound>
N[C@@H]1CCCC12CCN(c1ncc(Sc3ccnc4ncccc34)c3nccn13)CC2

>  <comparison operator>
=

>  <IC50, nM>
37

$$$$
>  <compound>
Cc1cnn(C)c1-c1c(C)nc(N2CCC3(CCC[C@H]3N)CC2)n2ccnc12

>  <comparison operator>
>

>  <IC50, nM>
10000

$$$$
>  <compound>
Cc1nc(N2CCC3(CCC[C@H]3N)CC2)n2ccnc2c1-c1cccc(Cl)c1Cl (single isomer, unassigned) [Example 10]

>  <comparison operator>
=

>  <IC50, nM>
52

$$$$
>  <compound>
Cc1nccc(Sc2cnc(N3CCC4(CCC[C@H]4N)CC3)n3ccnc23)c1C

>  <comparison operator>
=

>  <IC50, nM>
28

$$$$
>  <compound>
Cc1nc(N2CCC3(CCC[C@H]3N)CC2)n2ccnc2c1-c1cccc(Cl)c1Cl [Example 9]

>  <comparison operator>
=

>  <IC50, nM>
4.1

$$$$
>  <compound>
Cc1nc(N2CCC3(CCC[C@H]3N)CC2)n2ccnc2c1-c1ccccc1C(F)(F)F

>  <comparison operator>
>

>  <IC50, nM>
10000

$$$$
